# study_conditions: buffer; pH 7.4; 200.0 µM
So I've got a bunch of compounds here, and I need their solubility kinetic values.
Form entry: value (mg/mL) — number only.

q: GET /values?readout=solubility kinetic&item= CC(C)CCNC(=O)C(=O)Nc1cc2c3c(c1)CC(=O)N3CCC2
a: 0.0285

q: For the compound shown here, CCCCC(=O)Nc1ccc(NC(=O)c2ccco2)cn1 , give the reported solubility kinetic.
a: 0.0369

q: Value lookup for solubility kinetic; key = Nc1ccc(-c2cnc3ccccc3n2)cc1
a: 0.0274

q: So what does the record say about solubility kinetic for Cc1c(C)c(C)c(S(=O)(=O)NCCc2ccccn2)c(C)c1C ?
a: 0.0403

q: Field request: solubility kinetic | item: CC(=O)c1cccc(NC(=O)COC(=O)c2ccccc2C)c1
a: 0.0049

q: What does the data say about its solubility kinetic? Entry: Cc1ccc(NC(=O)Nc2ccon2)cc1Cl
a: 0.004

q: Item under review: Cl.Nc1ccc(Oc2cc(N)cc(Oc3ccccc3)c2)cc1 . Reported solubility kinetic?
a: 0.0301

q: What measured solubility kinetic goes with O=C(/C=C/c1ccccc1Cl)NCCCn1ccnc1 ?
a: 0.0389

q: Request the reported solubility kinetic associated with CC(=O)Nc1nc2ccccc2n1Cc1ccccc1Cl
a: 0.0052

q: Would you mind telling me what solubility kinetic value was observed for CCCc1nc(SCC(=O)Nc2nccs2)c2ccccc2n1 ?
a: 0.0009

q: Data request, read-out solubility kinetic, for O=C(Nc1ncc([N+](=O)[O-])s1)c1ccc2c(c1)OCO2
a: 0.0249

q: Suppose we examine the compound O=C1/C(=C/c2ccccn2)COc2ccccc21 ; what solubility kinetic value has been reported?
a: 0.0113

q: Query: solubility kinetic; subject: NC(=O)c1sc2nc(-c3cccs3)ccc2c1N
a: 0.0061

q: // solubility kinetic lookup, key: N#C/C(=C\c1ccc(O)cc1)C(=O)N1CCCC1
a: 0.0301

q: Need solubility kinetic, item Nc1cccc(NP(=O)(c2ccccc2)c2ccccc2)c1
a: 0.0017

* * *

# study_conditions: buffer; pH 7.4; 200.0 µM
endpoint: solubility kinetic (µg/mL)
All answers are understood in µg/mL, so give the number only.

q: Could you share which solubility kinetic value was measured for CCN(CC)CCNC(=O)c1ccc(NC(=O)Cc2ccsc2)cc1 ?
a: 49.4

q: For CCOc1ncccc1C(=O)Nc1ccc2c(c1)OCO2 , what is its reported solubility kinetic?
a: 2.7

q: If you can, please state the reported solubility kinetic value of COc1ccc(C2(C)NC(=O)N(CC(=O)N(c3ccccc3)C3CCS(=O)(=O)C3)C2=O)cc1 (configuration not stated) .
a: 52.8

q: Any idea what solubility kinetic was measured for CCc1ccccc1NC(=S)NCCSc1ccc(Cl)cc1 ?
a: 1.8

q: Consider the compound O=C(Nc1cccc([N+](=O)[O-])c1)c1ccccc1 and give its measured solubility kinetic.
a: 9.6

q: Which solubility kinetic reading was recorded for the compound Cn1c(=O)c2c(nc(N3CCc4ccccc4C3)n2C)n(C)c1=O ?
a: 43.2

q: Which solubility kinetic reading was recorded for the compound O=C(O)C(=O)O.c1ccc(COc2cccc(CN3CCCCC3)c2)cc1 ?
a: 46.2

* * *

# study_conditions: buffer; pH 7.4; 200.0 µM
endpoint: log10(solubility kinetic) (log10 of the value in µg/mL)
Note: values are log10 of solubility kinetic expressed in µg/mL.

q: // lookup log10(solubility kinetic) for Cc1ccc(NC(=O)Nc2cnccn2)cc1
a: 1.16

q: Return reported log10(solubility kinetic); argument: Cc1ccc(S(=O)(=O)/N=C(/Nc2nc(C)cs2)c2ccccc2)cc1
a: 0.90

q: // log10(solubility kinetic) lookup, key: Cc1ccc(S(=O)(=O)N2CCOCC2)cc1NC(=O)CNC(C)c1ccccc1.O=C(O)C(=O)O (stereo not given)
a: 1.87

q: Returns the measured log10(solubility kinetic) for the input compound. Input: Cc1ccc(S(=O)(=O)NCCc2nc3ccccc3[nH]2)cc1
a: 1.56

q: I'd like to know its log10(solubility kinetic). The compound in question is CCOC(=O)c1c(Cc2ccccc2)c[nH]c1C
a: 1.49

q: Can you share its log10(solubility kinetic)? I mean this compound: NC(=O)c1ccc(Nc2ccc3c(c2)CCC3)c([N+](=O)[O-])c1
a: 0.41

q: Param item = COc1c(C)cc(S(=O)(=O)NCCN2CCOCC2)c(C)c1C ; retrieve measured log10(solubility kinetic).
a: 1.67

q: Fill blank: measured log10(solubility kinetic) of the compound O=S(=O)(c1cccc2ccccc12)N1CCCCC1 is ____.
a: 1.24

q: What value of measured log10(solubility kinetic) is listed for COc1cccc(N2CCN(C(=O)c3ccc4nc[nH]c4c3)CC2)c1 ?
a: 1.69

q: Reported log10(solubility kinetic) for O=C1N(Cc2ccccc2)c2ccc(Cl)cc2C12OCCO2 : what is it?
a: 0.95

q: Bench note: what log10(solubility kinetic) did CC(C)c1ccc(CN2C(=O)c3ccccc3S2(=O)=O)cc1 show?
a: 0.08

q: May I ask what log10(solubility kinetic) has been recorded for COc1cccc(/C=C/C(=O)NCc2ccc(S(N)(=O)=O)cc2)c1 ?
a: 1.10

q: May I ask what log10(solubility kinetic) has been recorded for CC(NS(=O)(=O)c1ccc(N)cc1)C1CC2CCC1C2 (stereo not given) ?
a: 0.83

q: Recorded log10(solubility kinetic) of COc1ccccc1N1CCNCC1.Cl , please.
a: 1.45

q: Please look up its log10(solubility kinetic): N/C(=N\OC(=O)/C=C/c1ccccc1)c1ccncc1
a: 1.54

q: Looking for the measured log10(solubility kinetic) of COc1ccc(F)cc1S(=O)(=O)n1cnc2ccccc21 , can you help?
a: 1.45

* * *

# study_conditions: buffer; pH 7.4; 200.0 µM
So I've got a bunch of compounds here, and I need their solubility kinetic values.
Numeric answer only, unit µg/mL assumed.

q: Value lookup for solubility kinetic; key = CCSc1nc2sccc2c(=O)n1-c1ccccc1
a: 27.3

q: Can you look up the measured solubility kinetic of NC(=O)Cn1cc(C(=O)c2ccccc2)c2ccccc21 for me?
a: 10.8

q: Dear colleague, I am looking for the recorded solubility kinetic of the following compound: CC1CCN(CCc2nc3cc(NC(=O)C(C)C)ccc3n2C)CC1
a: 36.7

q: Requested field: solubility kinetic. Item: CCOC(=O)c1sc(=S)n(-c2ccc(OC)cc2)c1N
a: 2

* * *

# study_conditions: buffer; pH 7.4; 200.0 µM
Please respond with reported solubility kinetic for every item in the list.
All answers are understood in µg/mL, so give the number only.

q: Suppose we examine the compound CC(C)NC(=O)COc1ccc(OCc2ccccc2)cc1 ; what solubility kinetic value has been reported?
a: 9.5

q: Could you tell me which solubility kinetic is on file for Clc1ccc(Cn2ccc3ccccc32)cn1 ?
a: 26.4

q: Looking for the measured solubility kinetic of CCOC(=O)c1c(-c2cccs2)csc1N , can you help?
a: 26.8

q: Entry under review: COc1ccccc1Sc1nc(-c2ccccc2)ncc1OC . Reported solubility kinetic?
a: 1.1

q: Please report the recorded solubility kinetic for Fc1ccccc1COc1ccc(C(=S)N2CCCC2)cc1 .
a: 3.5

* * *

# study_conditions: buffer; pH 7.4; 200.0 µM
endpoint: solubility kinetic (µg/mL)
Note: unit µg/mL is implicit; provide only the numeric part.

q: Could you share which solubility kinetic value was measured for Clc1ccccc1C1Nc2cccc3cccc(c23)N1 ?
a: 7.5

q: What measured solubility kinetic goes with O=C(CSc1ccccc1)NC1CCCCCCC1 ?
a: 40.6

q: State the recorded solubility kinetic for this entry: O=C(COC(=O)/C=C/c1ccc(Cl)cc1)NC1CC1
a: 7.1

q: GET /values?readout=solubility kinetic&item= CCC(=O)Nc1ccc(NCc2ccc(-c3ccccc3)cc2)cc1
a: 28.6

q: solubility kinetic for CC1=CC(C)(C)Nc2ccc(OC(=O)CN3C(=O)c4cccc5cccc(c45)C3=O)cc21 ?
a: 56.3

q: Looking for the measured solubility kinetic of COC(=O)c1ccc(COc2ccc(C#N)cc2)o1 , can you help?
a: 7

* * *

# study_conditions: buffer; pH 7.4; 200.0 µM
Hi there, I'd appreciate the recorded solubility kinetic for every entry that follows.

q: Would you mind telling me what solubility kinetic value was observed for CCC(=NCc1ccco1)c1c(O)n(-c2ccccc2C)c(=O)[nH]c1=O ?
a: > 0.053 mg/mL

q: What solubility kinetic value was documented for this molecule, CCOC(=O)CNC(=O)N1c2ccccc2Sc2ccccc21 ?
a: > 0.0493 mg/mL

q: Which solubility kinetic is reported for this molecule? C=CCn1c(NC(=O)c2ccc(C)cc2)nc2ccccc21
a: < 0.0002 mg/mL

q: What value of solubility kinetic has been recorded for this entry: COc1ccc(NC(=O)CCOc2ccc(C)cc2)c(OC)c1
a: 0.0296 mg/mL

q: Given COc1cccc(C2/C(=C(/O)c3ccc4c(c3)CC(C)O4)C(=O)C(=O)N2CC2CCCO2)c1 (stereo unspecified) , state its recorded solubility kinetic.
a: 0.0647 mg/mL

q: Query (molecule): COC(=O)CCNC(=O)c1ccc2[nH]c(C)c(C)c2c1 ; field requested: solubility kinetic
a: > 0.0411 mg/mL

q: Name the recorded solubility kinetic for O=C(O)c1ccccc1C(=O)NC1=NN(c2ccccc2)CC1 .
a: > 0.0464 mg/mL

q: What measured solubility kinetic goes with CCCCN(C)C(=O)c1cc2c(s1)-c1ccccc1S(=O)(=O)C2 ?
a: > 0.0524 mg/mL

q: Using the record for S=C(Nc1ccc(Oc2ccccc2)cc1)N1CCOCC1 , report its solubility kinetic.
a: 0.0428 mg/mL

q: What value of measured solubility kinetic is listed for Cc1cc(/C=N/NC(N)=O)c(C)n1C1CCCCC1 ?
a: > 0.0394 mg/mL

q: I would be grateful if you could share the reported solubility kinetic for CN(C)c1ccc(/C=C/C(=O)c2ccc(O)cc2)cc1[N+](=O)[O-] .
a: 0.0012 mg/mL
